Reported pIC50 values follow for various compounds
Molecular target: K-Ras G13C (Homo sapiens (Human), UniProt P01116+P62937, G13C)
Sequence (P01116-2 other isoform, or with tags, fused parts or gaps G13C): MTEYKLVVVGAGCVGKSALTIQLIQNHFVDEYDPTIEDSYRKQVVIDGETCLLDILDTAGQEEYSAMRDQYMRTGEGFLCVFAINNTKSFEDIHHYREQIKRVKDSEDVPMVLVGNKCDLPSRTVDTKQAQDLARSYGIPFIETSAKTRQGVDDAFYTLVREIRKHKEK
Sequence (P62937 whole entry): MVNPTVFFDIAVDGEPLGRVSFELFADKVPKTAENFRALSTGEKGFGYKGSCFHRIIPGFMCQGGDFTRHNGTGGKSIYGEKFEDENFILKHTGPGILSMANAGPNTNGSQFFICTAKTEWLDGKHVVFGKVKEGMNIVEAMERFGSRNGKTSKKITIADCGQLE
Assay: Ras-Raf (BRAF RBD) disruption / FRET / MOA assay, KRAS G13C
Format: biochemical
Settings: KRAS G13C; Ras-Raf disruption/FRET/MOA assay; read-out: IC50* KRAS G13C FRET data
Protocol: The purpose of this biochemical assay is to measure the ability of test compounds to facilitate ternary complex formation between a nucleotide-loaded Ras isoform and cyclophilin A; the resulting ternary complex disrupts binding to a BRAF^RBD construct, inhibiting Ras signaling through a RAF effector. Compound is present in plate wells as a 10-point 3-fold dilution series starting at a final concentration of 30 μM. […]
pIC50: −log10 of the molar value.

// known answers, use as guide
CCn1c(-c2cnccc2COC)c2c3cc(ccc31)-c1ccnc(c1)C[C@H](NC(=O)[C@H](C(C)C)N(C)C(=O)[C@H]1CCN(C(=O)C#CCN(C)C)C1)C(=O)N1CCC[C@H](N1)C(=O)OCC(C)(C)C2 [Example A130] : 6.00 to 7.00
C=CC(=O)N1CC[C@H](C(=O)N(C)[C@H](C(=O)N[C@H]2CC3=CCCN(C3)c3ccc4c(c3)c(c(-c3cccnc3[C@H](C)OC)n4CC)CC(C)(C)COC(=O)[C@@H]3CCCN(N3)C2=O)C(C)C)C1 (atropisomer, axis not shown) [Example A486] : 5.00 to 6.00
C=CC(=O)N1CC[C@H](C(=O)N(C)C(C(=O)N[C@H]2C[C@H]3CN(CCO3)c3ccc4c(c3)c(c(-c3cccnc3[C@H](C)OC)n4CC)CC(C)(C)COC(=O)[C@@H]3CCCN(N3)C2=O)C(C)C)C1 (mixture of isomers) [Example A507] : 5.00 to 6.00
CC#CC(=O)N1C[C@H](C)[C@H](C(=O)N(C)[C@H](C(=O)N[C@H]2Cc3cccc(c3)-c3ccc4c(c3)c(c(-c3cccnc3[C@H](C)OC)n4CC)CC(C)(C)COC(=O)[C@@H]3CCCN(N3)C2=O)C2CCCC2)C1 (atropisomer, axis not shown) [Example A402] : 5.00 to 6.00
CCn1c(-c2cccnc2[C@H](C)OC)c2c3cc(ccc31)-c1nc(nn1C)C[C@H](NC(=O)[C@@H](COC1CN(C(=O)C#CC(C)(C)N(C)C)C1)C(C)C)C(=O)N1CCC[C@H](N1)C(=O)OCC(C)(C)C2 (atropisomer, axis not shown) [Example A720] : 5.00 to 6.00
C=CC(=O)N1CC[C@H](C(=O)N(C)[C@H](C(=O)N[C@H]2Cc3cccc(c3)-c3ccc4c(c3)c(c(-c3cccnc3[C@H](C)OC)n4CC)CC(C)(C)COC(=O)[C@@H]3CCCN(N3)C2=O)C2CCC2)C1 (atropisomer, axis not shown) [Example A321] : 5.00 to 6.00
C=CC(=O)N1CC[C@H](C(=O)N(C)[C@H](C(=O)N[C@H]2Cc3cc(O)cc(c3)-c3ccc4c(c3)c(c(-c3ccc(CN(C)C)nc3COC)n4CC)CC(C)(C)COC(=O)[C@@H]3CCCN(N3)C2=O)C(C)C)C1 [Example A103] : 5.00 to 6.00
CCn1c(-c2cnccc2[C@H](C)OC)c2c3cc(ccc31)-c1cccc(c1)C[C@H](NC(=O)[C@H](C(C)C)N(C)C(=O)[C@H]1CCN(C(=O)C#CCN(C)C)C1)C(=O)N1CCC[C@H](N1)C(=O)OCC(C)(C)C2 [Example A140] : 7.00 to 8.00
C=CC(=O)N1CC2(C1)CN(C(=O)N(C)[C@H](C(=O)N[C@H]1Cc3nc(cs3)-c3ccc4c(c3)c(c(-c3cccnc3[C@H](C)OC)n4CC)CC(C)(C)COC(=O)[C@@H]3CCCN(N3)C1=O)C(C)C)CCO2 (atropisomer, axis not shown) [Example A431] : 6.00 to 7.00
C=CC(=O)N1CC[C@H](C(=O)N(C)[C@H](C(=O)N[C@H]2Cc3cccc(c3)-c3ccc4c(c3)c(c(-c3cccnc3[C@H](C)OC)n4CC)CC(C)(C)COC(=O)[C@@H]3CCCN(N3)C2=O)C(C)C(F)(F)F)C1 (stereo partly shown) [Example A641] : 5.00 to 6.00

What value of measured pIC50 is listed for CO[C@@H](C)c1ncccc1-c1c2c3cc(ccc3n1CC(F)(F)F)-c1cc(CF)cc(c1)C[C@H](NC(=O)[C@@H](COC1CN(C(=O)C#CC(C)(C)N(C)C)C1)C(C)C)C(=O)N1CCC[C@H](N1)C(=O)OCC(C)(C)C2 (atropisomer, axis not shown) [Example A589] ?
5.00 to 6.00

What value of measured pIC50 is listed for C=CC(=O)N1CC[C@H](C(=O)N(C)[C@H](C(=O)N[C@H]2Cc3nc(cs3)-c3ccc4c(c3)c(c(-c3cccnc3[C@H](C)OC)n4CC)CC(C)(C)CCC[C@@H]3CCCN(N3)C2=O)C(C)C)C1 (atropisomer, axis not shown) [Example A288] ?
< 5.00

What value of measured pIC50 is listed for C=CC(=O)N1CCC2(CCN([C@H](C(=O)N[C@H]3Cc4cc(O)cc(c4)-c4ccc5c(c4)c(c(-c4cccnc4[C@H](C)OC)n5CC)CC(C)(C)COC(=O)[C@@H]4CCCN(N4)C3=O)C(C)C)C2=O)C1 (stereo partly shown) [Example A295] ?
7.00 to 8.00

What value of measured pIC50 is listed for C=CC(=O)N1CCOC2(CCN(C(=O)N(C)[C@H](C(=O)N[C@H]3C[C@H]4CN(CCO4)c4ccc5c(c4)c(c(-c4cccnc4[C@H](C)OC)n5CC)CC(C)(C)COC(=O)[C@@H]4CCCN(N4)C3=O)C(C)C)CC2)C1 [Example A564] ?
7.00 to 8.00

What value of measured pIC50 is listed for C=CC(=O)N1CC[C@H](C(=O)N(C)[C@H](C(=O)N[C@H]2Cc3cc(O)cc(c3)-c3ccc4c(c3)c(c(-c3ccc(COC)cc3CN(C)C)n4CC)CC(C)(C)COC(=O)[C@@H]3CCCN(N3)C2=O)C(C)C)C1 [Example A127] ?
6.00 to 7.00

What value of measured pIC50 is listed for C=CC(=O)N1CC[C@H](C(=O)N(C)[C@H](C(=O)N[C@H]2Cc3cc(O)cc(c3)-c3ccc4c(c3)c(c(-c3cccnc3CNC)n4CC)CC(C)(C)COC(=O)[C@@H]3CCCN(N3)C2=O)C(C)C)C1 [Example A137] ?
< 5.00
